experiment: Area under the concentration-time curve from time zero to infinity after intravenous administration of 2.5 mg/kg in dogs; format: ADME, organism-based, Canis lupus familiaris; design: dose 2.5 mg/kg, route intravenous; conditions: dog, in vivo
metric: AUC(0-inf) (ng·h/mL)
Express it in ng·h/mL; write the number only.

Provide only the value of recorded AUC(0-inf) for COc1ccc(C2(O)OC(=O)C(c3ccc4c(c3)OCO4)=C2Cc2cc(OC)c(OC)c(OC)c2)cc1 (stereo unspecified) 1500

* * *

assay: Maximum observed concentration in oral (5 mg/kg) fasted dogs; type: ADME, organism-based, Canis lupus familiaris; design: dose 5 mg/kg, route oral; details: dog, in vivo
metric: Cmax (ng/mL)
API: value field is a number in ng/mL; no unit string.

Output Cmax of COc1ccc(C2(O)OC(=O)C(c3ccc4c(c3)OCO4)=C2Cc2cc(OC)c(OC)c(OC)c2)cc1 (stereo unspecified) 1520

These measurements were taken from ChEMBL document CHEMBL1129982.
